ASSAY TEXT: Pharmacokinetics after single intravenous drip infusion, plasma LC-MS/MS
Type: in vivo, Philippine macaques
CONDITIONS USED: male, Philippine macaque, cynomolgus monkey, plasma, iv, 0.42 mg/kg, AST-3424-D6 single intravenous infusion, Table 15 heading 0.58 mg/kg (text: 0.42 mg/kg); plasma; individual animals 101, 102, 103; read-out: MRT(0−t)
Experimental: AST-3424 and AST-3424-D6 (i.e. the compound of formula I) were administered to Philippine macaques by intravenous drip infusion, and blood samples were collected at different appointed times. LC-MS/MS was used to determine concentrations of the test substances in plasma of the Philippine macaques after administration, and relevant pharmacokinetic parameters were calculated. […]
QUANTITY KIND: MRT last (min)
Enter your answer as a number in min; do not include the unit.

Data request: Query: MRT last; subject: [2H]C([2H])([2H])N(C(=O)c1cccc(Oc2cc([C@H](C)OP(=O)(N3CC3)N3CC3)ccc2[N+](=O)[O-])c1)C([2H])([2H])[2H]
Data returned: 9

====

ASSAY TEXT: Pharmacokinetics after single intravenous drip infusion, plasma LC-MS/MS
Format: in vivo, Philippine macaques
CONDITIONS USED: male, Philippine macaque, cynomolgus monkey, plasma, iv, 0.58 mg/kg, AST-3424 0.58 mg/kg single intravenous infusion; plasma; read-out: Vz, Mean
QUANTITY KIND: Vd (L/kg)
Enter your answer as a number in L/kg; do not include the unit.

Data request: Query: Vd; subject: C[C@H](OP(=O)(N1CC1)N1CC1)c1ccc([N+](=O)[O-])c(Oc2cccc(C(=O)N(C)C)c2)c1
Data returned: 0.306

====

ASSAY TEXT: Solubility study of AST-3424 (shaking at 25° C., HPLC content)
Type: physicochemical
CONDITIONS USED: alkaline borate buffer, 25 °C, pH 10, aqueous buffer, thermodynamic from solid, pH 10.0 (Alkaline borate buffer), 24 h, read-out: Content (solubility test)
QUANTITY KIND: solubility at 24 h (mg/mL)
Enter your answer as a number in mg/mL; do not include the unit.

Data request: Query: solubility at 24 h; subject: C[C@H](OP(=O)(N1CC1)N1CC1)c1ccc([N+](=O)[O-])c(Oc2cccc(C(=O)N(C)C)c2)c1 [AST-3424]
Data returned: 23.5

====

ASSAY TEXT: Pharmacokinetics after single intravenous drip infusion, plasma LC-MS/MS
Format: in vivo, Philippine macaques
CONDITIONS USED: male, cynomolgus monkey, plasma, iv, 0.58 mg/kg, AST-3424 0.58 mg/kg single intravenous infusion; plasma; read-out: Tmax, Mean
QUANTITY KIND: Tmax

Data request: Query: Tmax; subject: C[C@H](OP(=O)(N1CC1)N1CC1)c1ccc([N+](=O)[O-])c(Oc2cccc(C(=O)N(C)C)c2)c1
Data returned: 18.4 min

====

ASSAY TEXT: Pharmacokinetics after single intravenous drip infusion, plasma LC-MS/MS
Format: in vivo, Philippine macaques
CONDITIONS USED: male, cynomolgus monkey, plasma, iv, 0.58 mg/kg, AST-3424 0.58 mg/kg single intravenous infusion; plasma; individual animals 101, 102, 103; read-out: MRT(0−∞)
QUANTITY KIND: MRT inf (min)
Enter your answer as a number in min; do not include the unit.

Data request: Query: MRT inf; subject: C[C@H](OP(=O)(N1CC1)N1CC1)c1ccc([N+](=O)[O-])c(Oc2cccc(C(=O)N(C)C)c2)c1
Data returned: 8.4
